target.desc: Carbonic anhydrase 2 (Homo sapiens, UniProt P00918)
assay.remarks: Inhibition of human recombinant carbonic anhydrase 2 incubated for 15 mins prior to testing by stopped-flow CO2 hydration assay
pKi: −log10 of the molar value.
measurement.label: pKi

input.smiles	assay.value
Cc1cc(C)c2c(c1)/C(=N/CCc1ccc(S(N)(=O)=O)cc1)C(=O)N2	7.30
NS(=O)(=O)c1ccc(CC/N=C2\NC(=O)/C(=C3/C(=O)Nc4ccccc43)S2)cc1	6.58
NS(=O)(=O)c1ccc(CC/N=C2\NC(=O)CS2)cc1	8.18
NS(=O)(=O)c1ccc(CC/N=C2\NC(=O)/C(=C3/C(=O)Nc4ccc(Br)cc43)S2)cc1	6.80
